# studyTarget: T1, human TIGIT over-expressed on cells (human, UniProt Q495A1 22-244)
# T1 sequence: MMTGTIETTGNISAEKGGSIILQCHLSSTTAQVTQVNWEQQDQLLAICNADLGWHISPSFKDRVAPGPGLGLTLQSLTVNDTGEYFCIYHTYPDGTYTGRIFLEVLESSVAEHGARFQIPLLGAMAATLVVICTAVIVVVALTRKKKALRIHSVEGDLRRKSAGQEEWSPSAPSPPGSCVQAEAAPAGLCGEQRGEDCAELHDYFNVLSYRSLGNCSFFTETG
# measurementNotes: cell-based or functional assay
readoutName: IL-2 secretion in T cell activation, Bottom (best-fit)

Exercise: // lookup IL-2 secretion in T cell activation, Bottom (best-fit) for 64G1E9B4 chimeric (antibody, V domains shown, also called 64G1 Chimeric) VH: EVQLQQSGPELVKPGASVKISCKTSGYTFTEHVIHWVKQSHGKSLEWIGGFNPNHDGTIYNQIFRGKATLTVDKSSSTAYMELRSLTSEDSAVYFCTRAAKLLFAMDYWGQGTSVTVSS VL: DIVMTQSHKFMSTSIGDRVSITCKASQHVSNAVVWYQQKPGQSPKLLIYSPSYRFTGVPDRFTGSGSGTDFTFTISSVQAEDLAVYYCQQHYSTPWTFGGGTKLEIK
Key: 204
